Measured kon, listed per entry.
TARGET OR TEST SYSTEM: T1, human C1s (human, UniProt P09871 16-688)
T1 construct: Analyte in the Biacore assays; also called hC1s; serum-derived human C1s (CompTech)
T1 sequence: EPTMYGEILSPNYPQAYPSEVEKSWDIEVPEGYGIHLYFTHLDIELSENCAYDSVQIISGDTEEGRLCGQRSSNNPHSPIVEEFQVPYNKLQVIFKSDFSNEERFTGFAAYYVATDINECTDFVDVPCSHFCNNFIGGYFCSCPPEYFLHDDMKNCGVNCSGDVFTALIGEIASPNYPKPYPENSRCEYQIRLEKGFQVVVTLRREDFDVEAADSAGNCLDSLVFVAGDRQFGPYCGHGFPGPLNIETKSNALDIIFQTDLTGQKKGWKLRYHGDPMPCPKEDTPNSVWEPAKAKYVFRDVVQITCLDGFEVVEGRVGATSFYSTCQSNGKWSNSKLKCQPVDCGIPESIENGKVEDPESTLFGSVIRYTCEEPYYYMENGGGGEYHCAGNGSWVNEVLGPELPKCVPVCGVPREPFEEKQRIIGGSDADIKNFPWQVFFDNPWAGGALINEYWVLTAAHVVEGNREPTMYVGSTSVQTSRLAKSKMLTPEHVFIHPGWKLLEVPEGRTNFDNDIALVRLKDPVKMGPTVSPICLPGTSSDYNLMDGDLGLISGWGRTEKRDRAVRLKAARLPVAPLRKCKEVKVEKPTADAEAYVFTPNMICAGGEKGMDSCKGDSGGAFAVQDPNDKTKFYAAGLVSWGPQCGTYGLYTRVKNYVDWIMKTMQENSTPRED
ASSAY EXPLANATION: SPR (Biacore T200, 37C), Ab captured on protein A/G; pH 5.8, 3 uM Ca
Field: numeric (M⁻¹ s⁻¹). Do not append units.

## Input Which kon is reported for this binder? C1_IPN92H0117-SG4GK/IPN93L0024-SK1 (antibody, human IgG4 S228P, kappa, name in Kabat numbering, V domains shown, Substitutions from IPN009VH2, Kabat numbering; also called IPN92H0117/IPN93L0024) VH: EVMLVESGGGLVKPGGSLRLSCAASGFTFSNYAMSWVRQAPGKGLEWVATISQGGSHTYYLDSVKGRFTISRDNSKDTLYLQMNSLRAEDTALYYCARLFTGHAMDYWGQGTLVTVSS VL: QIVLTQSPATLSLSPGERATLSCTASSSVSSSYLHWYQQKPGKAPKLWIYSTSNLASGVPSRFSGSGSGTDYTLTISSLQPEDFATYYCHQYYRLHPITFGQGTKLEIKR
## Output 703000

## Input Which kon is reported for this binder? C1_IPN92H0188-SG4GK/IPN93L0024-SK1 (antibody, human IgG4 S228P, kappa, name in Kabat numbering, V domains shown, Substitutions from IPN009VH2, Kabat numbering; also called IPN92H0188/IPN93L0024) VH: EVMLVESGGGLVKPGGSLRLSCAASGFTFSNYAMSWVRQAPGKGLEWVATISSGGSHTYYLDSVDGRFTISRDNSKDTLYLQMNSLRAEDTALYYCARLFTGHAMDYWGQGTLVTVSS VL: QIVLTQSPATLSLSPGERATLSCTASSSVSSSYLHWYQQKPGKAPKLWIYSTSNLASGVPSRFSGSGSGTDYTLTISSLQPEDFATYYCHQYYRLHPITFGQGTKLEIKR
## Output 2.53e+06
